Would you kindly list T/C for each of these compounds?
Tested on: CD2F1 mice, L1210 leukemia ip, survival T/C
Assay: NCI In Vivo Anticancer Drug Screen. Data for tumor model L1210 Leukemia (intraperitoneal) in CD2F1 (CDF1) mice
Conditions: endpoint: mean survival time; dose: 200.0 mg/kg/injection; schedule: Q04DX003 (ip); vehicle: saline with Tween-80; higher = longer survival
Experimental: The antitumor activity of compounds was measured in mice bearing transplantable tumors. Survival or tumor size were measured and the results are expressed as the measurement made in the treated group (T) divided by the measurement made in the vehicle treated control group (C). The tumor model used in this assay is L1210 Leukemia (intraperitoneal) in CD2F1 (CDF1) mice
Toxic doses and inconclusive results are not listed.

Cc1c2c(cc3c1[nH]c1ccccc13)C(c1ccc(Cl)cc1)=NCC2 : 89 % of control

Take each entry in turn and give its T/C.
1. O=[N+]([O-])c1ccccc1SSc1ccccc1[N+](=O)[O-]
2. O/N=C\c1cccc2ccccc12
3. CC12CCC(C(=O)C1=O)C2(C)C (stereo unspecified)
4. Cc1cccnc1-n1c(N)cc(=O)[nH]c1=S
5. BrC(Br)(c1ccccc1)C1OCCO1
6. OCc1ccc(Cl)cc1
7. OC(Cc1nc(-c2ccccc2)c(-c2ccccc2)s1)(C(F)(F)F)C(F)(F)F

1: 95 % of control; 2: 101 % of control; 3: 94 % of control; 4: 101 % of control; 5: 97 % of control; 6: 97 % of control; 7: 95 % of control
